TEST_METHOD_NOTES: Pharmacokinetics in male CD1 mice, IV administration
Type: in vivo, mouse
TEST_SETTINGS: mouse, IV 5 mg/kg, whole blood
Method: Pharmacokinetic parameters were determined by administration of a candidate bromodomain inhibitor to male CD1 mice. Intravenous doses were delivered at 5 mg/kg, and oral doses at 10 mg/kg (N=3). […] The compound concentration in mouse blood was monitored over 24 hour time period to check the compound concentration in blood at 5 min, […], 1 h, 2 h, 6 h, 12, 24 h via a series bleeding.
Kindly state AUC(0-t) for each of the entries shown.
Enter your answer as a number in ng·h/mL; do not include the unit.

# input molecule: Cc1sc2c(c1C)C(c1ccc(C#N)cc1)=N[C@@H](CC(=O)NCC(F)F)c1nnc(C)n1-2 ; wanted: its AUC(0-t)
3500

# input molecule: Cc1sc2c(c1C)C(c1ccc(C#N)cc1)=N[C@@H](CC(=O)NC[C@H](C)O)c1nnc(C)n1-2 ; wanted: its AUC(0-t)
2920

# input molecule: COC(=O)C[C@@H]1N=C(c2ccc(Cl)cc2)c2c(sc(CC#N)c2C)-n2c(C)nnc21 ; wanted: its AUC(0-t)
4000

====

TEST_METHOD_NOTES: Pharmacokinetics in male CD1 mice, IV administration
Format: in vivo, mouse
TEST_SETTINGS: mouse, IV 5 mg/kg, whole blood
Kindly state AUC(0-inf) for each of the entries shown.

# input compound: Cc1sc2c(c1C)C(c1ccc(C#N)cc1)=N[C@@H](CC(=O)NC[C@H](C)O)c1nnc(C)n1-2 ; wanted: its AUC(0-inf)
2920 ng·h/mL

# input compound: Cc1sc2c(c1C)C(c1ccc(C#N)cc1)=N[C@@H](CC(=O)NCC(F)F)c1nnc(C)n1-2 ; wanted: its AUC(0-inf)
3510 ng·h/mL

# input compound: COC(=O)C[C@@H]1N=C(c2ccc(Cl)cc2)c2c(sc(CC#N)c2C)-n2c(C)nnc21 ; wanted: its AUC(0-inf)
4050 ng·h/mL

====

Kindly state pIC50 for each of the entries shown.
The scale used: pIC50 is minus the common logarithm of the concentration in molar units.

Find pIC50 (UniProt:O60885) for the entry Cc1c(CC#N)sc2c1C(c1ccc(Cl)cc1)=N[C@@H](CC(=O)NCCN1CCOCC1)c1nnc(C)n1-2 [Compound 204]
6.52

Find pIC50 (UniProt:O60885) for the entry Cc1sc2c(c1C)C(c1ccc(C#N)cc1)=N[C@@H](CC(=O)NCCO)c1nnc(C)n1-2 [Compound 106]
7.48

Find pIC50 (UniProt:O60885) for the entry Cc1c(CC#N)sc2c1C(c1ccc(Cl)cc1)=N[C@@H](CC(=O)NCCO)c1nnc(C)n1-2 [Compound 206]
6.71

Find pIC50 (UniProt:O60885) for the entry CCNC(=O)C[C@@H]1N=C(c2ccc(Cl)cc2)c2c(sc(CC#N)c2C)-n2c(C)nnc21 [Compound 202]
6.51

====

Kindly state log10 IC50 for each of the entries shown.
All values: log10 IC50 [nM].

Find log10 IC50 (BRD4(1) (Homo sapiens (Human))) for the entry Cc1sc2c(c1C)C(c1ccc(C#N)cc1)=N[C@@H](CC(=O)NC[C@@H](C)O)c1nnc(C)n1-2
1.72

Find log10 IC50 (BRD4(1) (Homo sapiens (Human))) for the entry Cc1sc2c(c1C)C(c1ccc(C#N)cc1)=N[C@@H](CC(=O)NCCCN1CCN(C)CC1)c1nnc(C)n1-2
1.70

Find log10 IC50 (BRD4(1) (Homo sapiens (Human))) for the entry Cc1c(CC#N)sc2c1C(c1ccc(Cl)cc1)=N[C@@H](CC(=O)NC[C@@H](C)O)c1nnc(C)n1-2
2.62

Find log10 IC50 (BRD4(1) (Homo sapiens (Human))) for the entry Cc1sc2c(c1C)C(c1ccc(C#N)cc1)=N[C@@H](CC(=O)Nc1ccc(O)cc1)c1nnc(C)n1-2
1.90

Find log10 IC50 (BRD4(1) (Homo sapiens (Human))) for the entry Cc1c(CC#N)sc2c1C(c1ccc(Cl)cc1)=N[C@@H](CC(=O)NC[C@H](C)O)c1nnc(C)n1-2
2.79

Find log10 IC50 (BRD4(1) (Homo sapiens (Human))) for the entry Cc1sc2c(c1C)C(c1ccc(C#N)cc1)=N[C@@H](CC(=O)N1CCOCC1)c1nnc(C)n1-2
1.95

Find log10 IC50 (BRD4(1) (Homo sapiens (Human))) for the entry Cc1sc2c(c1C)C(c1ccc(C#N)cc1)=N[C@@H](CC(=O)NC[C@H](C)O)c1nnc(C)n1-2
1.79

Find log10 IC50 (BRD4(1) (Homo sapiens (Human))) for the entry COC(=O)C[C@@H]1N=C(c2ccc(Cl)cc2)c2c(sc(CNS(=O)(=O)c3ccccc3)c2C)-n2c(C)nnc21
1.20

Find log10 IC50 (BRD4(1) (Homo sapiens (Human))) for the entry Cc1sc2c(c1C)C(c1ccc(C#N)cc1)=N[C@@H](CC(N)=O)c1nnc(C)n1-2
2.24

Find log10 IC50 (BRD4(1) (Homo sapiens (Human))) for the entry CCNC(=O)C[C@@H]1N=C(c2ccc(C#N)cc2)c2c(sc(C)c2C)-n2c(C)nnc21
2.08

Find log10 IC50 (BRD4(1) (Homo sapiens (Human))) for the entry Cc1c(CC#N)sc2c1C(c1ccc(Cl)cc1)=N[C@@H](CC(=O)NCCCN1CCN(C)CC1)c1nnc(C)n1-2
2.13

Find log10 IC50 (BRD4(1) (Homo sapiens (Human))) for the entry Cc1sc2c(c1C)C(c1ccc(C#N)cc1)=N[C@@H](CC(=O)NCC(F)F)c1nnc(C)n1-2
1.57

Find log10 IC50 (BRD4(1) (Homo sapiens (Human))) for the entry Cc1c(CC#N)sc2c1C(c1ccc(Cl)cc1)=N[C@@H](CC(=O)NCC(F)F)c1nnc(C)n1-2
2.59

Find log10 IC50 (BRD4(1) (Homo sapiens (Human))) for the entry Cc1c(CC#N)sc2c1C(c1ccc(Cl)cc1)=N[C@@H](CC(N)=O)c1nnc(C)n1-2
2.31

Find log10 IC50 (BRD4(1) (Homo sapiens (Human))) for the entry COC(=O)C[C@@H]1N=C(c2ccc(Cl)cc2)c2c(sc(CC#N)c2C)-n2c(C)nnc21
1.68
